# assay.target: MMP-1 (Homo sapiens)
# Sequence (P03956 100-469): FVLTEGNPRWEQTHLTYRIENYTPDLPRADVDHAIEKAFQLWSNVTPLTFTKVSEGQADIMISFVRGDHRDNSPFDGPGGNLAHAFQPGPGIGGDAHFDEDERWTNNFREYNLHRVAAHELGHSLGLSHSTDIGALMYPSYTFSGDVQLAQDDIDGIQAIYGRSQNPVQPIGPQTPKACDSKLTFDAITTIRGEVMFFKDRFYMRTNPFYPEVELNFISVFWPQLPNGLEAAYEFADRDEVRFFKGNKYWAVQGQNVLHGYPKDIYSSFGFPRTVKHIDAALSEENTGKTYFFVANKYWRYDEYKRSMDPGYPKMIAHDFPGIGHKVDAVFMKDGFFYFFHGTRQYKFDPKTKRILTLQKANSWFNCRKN
# method.description: Inhibition of human matrix metalloproteases
# Format: biochemical
# test.conditions: inhibitor 1.0 μM; read-out: percentage of MMP-1 activity remaining
Threshold 90%: remaining activity at 1 µM strictly smaller gives 1, otherwise -1.

INSERT INTO measurements (compound, label) VALUES
  ('NCCCC[C@@H]1NC(=O)[C@@H](CN(O)C=O)CCCCCCCCCCCCCCNC1=O', -1),
  ('CCCCCCNC(=O)[C@H](CCCCN)NC(=O)[C@H](CCCCC)CN(O)C=O [Compound 9C, reference compound]', 1),
  ('CC(C)(C)[C@@H]1NC(=O)[C@@H](CN(O)C=O)CCCCCCCCCCCCCCNC1=O', -1),
  ('CCCC[C@H](CN(O)C=O)C(=O)N[C@@H](CCCCN)C(=O)Nc1ccccc1 [Compound 10C, reference compound]', 1),
  ('CC(=O)NCCCC[C@@H]1NC(=O)[C@@H](CN(O)C=O)CCCCCCCCCNC1=O', -1),
  ('CC(C)(C)C1NC(=O)C(CN(O)C=O)CCCCCCCCCNC1=O (stereo not shown)', -1),
  ('CC(C)(C)[C@@H]1NC(=O)[C@@H](CN(O)C=O)CCCCCCCNC1=O', -1);

* * *

# remaining activity at 1 µM values compiled below
# assay.target: MMP2 (Homo sapiens)
# Sequence (P08253 110-660): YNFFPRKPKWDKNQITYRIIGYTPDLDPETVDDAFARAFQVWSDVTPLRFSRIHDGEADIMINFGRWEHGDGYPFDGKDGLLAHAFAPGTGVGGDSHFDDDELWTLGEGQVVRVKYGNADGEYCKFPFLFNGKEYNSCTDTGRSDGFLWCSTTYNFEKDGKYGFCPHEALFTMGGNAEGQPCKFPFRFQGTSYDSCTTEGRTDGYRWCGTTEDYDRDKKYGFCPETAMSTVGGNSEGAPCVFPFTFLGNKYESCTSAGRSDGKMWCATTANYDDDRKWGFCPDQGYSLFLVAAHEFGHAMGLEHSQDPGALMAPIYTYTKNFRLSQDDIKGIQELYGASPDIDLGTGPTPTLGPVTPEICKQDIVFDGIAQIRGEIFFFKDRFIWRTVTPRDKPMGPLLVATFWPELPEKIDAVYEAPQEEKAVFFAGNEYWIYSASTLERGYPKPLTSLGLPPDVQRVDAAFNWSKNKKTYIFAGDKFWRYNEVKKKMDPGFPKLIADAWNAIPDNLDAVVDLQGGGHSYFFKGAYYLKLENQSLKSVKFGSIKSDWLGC
# method.description: Inhibition of human matrix metalloproteases
# Format: biochemical
# test.conditions: inhibitor 1.0 μM; read-out: percentage of MMP2 activity remaining
quantity.measured: remaining activity at 1 µM

INSERT INTO assay_data (compound, observed) VALUES
  ('CC(=O)NCCCC[C@@H]1NC(=O)[C@@H](CN(O)C=O)CCCCCCCCCNC1=O', '83%'),
  ('NCCCC[C@@H]1NC(=O)[C@@H](CN(O)C=O)CCCCCCCCCCCCCCNC1=O', '94%'),
  ('CCCCCCNC(=O)[C@H](CCCCN)NC(=O)[C@H](CCCCC)CN(O)C=O [Compound 9C, reference compound]', '27%'),
  ('CC(C)(C)C1NC(=O)C(CN(O)C=O)CCCCCCCCCNC1=O (stereo not shown)', '96%'),
  ('CC(C)(C)[C@@H]1NC(=O)[C@@H](CN(O)C=O)CCCCCCCNC1=O', '90%'),
  ('CCCC[C@H](CN(O)C=O)C(=O)N[C@@H](CCCCN)C(=O)Nc1ccccc1 [Compound 10C, reference compound]', '66%'),
  ('CC(C)(C)[C@@H]1NC(=O)[C@@H](CN(O)C=O)CCCCCCCCCCCCCCNC1=O', '100%');
